These entries and their values trace back to paper PMC2937276.

Format: in vivo, CD-1 mice
settings: male, CD-1, mouse, brain, iv, 70 mg/kg
recordedEndpoint: Cmax

[ask] Return reported Cmax; argument: "O=C1OCC/C=C/CC/C=C/C(=N/OCC(=O)N2CCCCC2)Cc2c(Cl)c(O)cc(O)c21"
[reply] 223 ng/g

---

Test system: GBM culture GBM8
assayProcedure: XTT cell proliferation assay
Format: cell-based, Human
settings: Homo sapiens, 36 h
recordedEndpoint: pIC50
API: returns pIC50 as number; meaning -log10 of concentration in mol/L.

[ask] Return reported pIC50; argument: O=C1OCC/C=C/CC/C=C/C(=N/OCC(=O)N2CCCCC2)Cc2c(Cl)c(O)cc(O)c21 [NXD30001]
[reply] 5.24
